Every entry's value here was drawn from the supplement of paper PMC6555819.

Tested on: PPARg:RXRa 270nM:90nM, anti-RXR (NR concentration 270 nM, RXRa partner concentration 90 nM)
assayText: PBM binding z-score (relative to random genomic background probes); higher = stronger binding; sequences stand for … in GC…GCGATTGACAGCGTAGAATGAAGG
assayMetric: PBM binding z-score

**Q:** Please give the measured PBM binding z-score for this sequence: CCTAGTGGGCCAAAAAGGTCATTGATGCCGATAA
**A:** 3.97

**Q:** Please give the measured PBM binding z-score for this sequence: AGAATGAGGTTATGAAGATCAGGGAATTGCGGTC
**A:** 2.1

**Q:** Please give the measured PBM binding z-score for this sequence: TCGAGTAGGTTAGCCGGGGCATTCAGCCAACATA
**A:** 0.609

**Q:** Please give the measured PBM binding z-score for this sequence: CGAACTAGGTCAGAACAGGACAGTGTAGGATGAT
**A:** 4.48

**Q:** Please give the measured PBM binding z-score for this sequence: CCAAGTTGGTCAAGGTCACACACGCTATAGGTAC
**A:** 4.02

**Q:** Please give the measured PBM binding z-score for this sequence: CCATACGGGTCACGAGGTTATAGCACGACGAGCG
**A:** 6.47

**Q:** Please give the measured PBM binding z-score for this sequence: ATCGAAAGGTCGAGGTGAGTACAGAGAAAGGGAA
**A:** 3.96

**Q:** Please give the measured PBM binding z-score for this sequence: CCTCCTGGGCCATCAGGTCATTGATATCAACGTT
**A:** 1.29

**Q:** Please give the measured PBM binding z-score for this sequence: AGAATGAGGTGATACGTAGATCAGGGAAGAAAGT
**A:** 1.16

**Q:** Please give the measured PBM binding z-score for this sequence: TCTGTTAGGTCAACGATGGTCAGCTAATCTGCTA
**A:** 3.13

**Q:** Please give the measured PBM binding z-score for this sequence: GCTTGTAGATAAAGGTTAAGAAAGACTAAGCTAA
**A:** 2.24

**Q:** Please give the measured PBM binding z-score for this sequence: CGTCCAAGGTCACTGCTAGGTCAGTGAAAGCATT
**A:** 5.1

* * *

Tested on: PPARg:RXRa DBDmut IVT, anti-RXR (DBD mutation: RXRa K156A/R161A, NR concentration 270 nM, RXRa partner concentration 90 nM)
assayText: PBM binding z-score (relative to random genomic background probes); higher = stronger binding; sequences stand for … in GC…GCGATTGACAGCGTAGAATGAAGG
# if value of PBM binding z-score reaches 1, tag Fulfilled; if it stays below, tag Not fulfilled

**Q:** Could you tell me if the measured PBM binding z-score of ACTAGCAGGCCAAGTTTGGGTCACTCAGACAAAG reaches 1 or more?
**A:** Not fulfilled

**Q:** Could you tell me if the measured PBM binding z-score of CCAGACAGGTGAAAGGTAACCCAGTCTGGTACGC reaches 1 or more?
**A:** Fulfilled

**Q:** Could you tell me if the measured PBM binding z-score of TCTCGGAGGACACTAAGGTCAGAGCTTTCCAGAG reaches 1 or more?
**A:** Fulfilled

**Q:** Could you tell me if the measured PBM binding z-score of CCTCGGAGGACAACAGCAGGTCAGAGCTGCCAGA reaches 1 or more?
**A:** Not fulfilled

**Q:** Could you tell me if the measured PBM binding z-score of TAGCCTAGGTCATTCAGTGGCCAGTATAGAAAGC reaches 1 or more?
**A:** Fulfilled

**Q:** Could you tell me if the measured PBM binding z-score of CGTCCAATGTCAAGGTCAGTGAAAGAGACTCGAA reaches 1 or more?
**A:** Not fulfilled

**Q:** Could you tell me if the measured PBM binding z-score of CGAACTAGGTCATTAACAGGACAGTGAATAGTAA reaches 1 or more?
**A:** Fulfilled

**Q:** Could you tell me if the measured PBM binding z-score of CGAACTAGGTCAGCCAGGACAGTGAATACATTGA reaches 1 or more?
**A:** Fulfilled

**Q:** Could you tell me if the measured PBM binding z-score of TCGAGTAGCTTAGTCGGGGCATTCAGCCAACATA reaches 1 or more?
**A:** Not fulfilled

**Q:** Could you tell me if the measured PBM binding z-score of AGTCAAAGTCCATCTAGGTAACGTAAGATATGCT reaches 1 or more?
**A:** Not fulfilled

**Q:** Could you tell me if the measured PBM binding z-score of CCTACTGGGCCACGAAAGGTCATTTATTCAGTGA reaches 1 or more?
**A:** Fulfilled

**Q:** Could you tell me if the measured PBM binding z-score of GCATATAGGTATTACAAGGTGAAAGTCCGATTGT reaches 1 or more?
**A:** Fulfilled
